- measurement-description: molar heat capacity at constant pressure
- conditions: 293.15 K; 101.33 kPa; Liquid; Small sample (50 mg) DSC
Provide the reported molar heat capacity at constant pressure of each item.
Kindly answer with a numeric value in J/K/mol, unit omitted.

Identify measured molar heat capacity at constant pressure associated with C[S+](C)[O-] [dimethyl sulfoxide]
151.2

Quick one: give measured molar heat capacity at constant pressure for C1COCO1
120.3

Provide molar heat capacity at constant pressure value for the following compound: C1COCCO1
150

Assign molar heat capacity at constant pressure to the following record: COCCOC
189

Name the recorded molar heat capacity at constant pressure of the compound listed here: CCOCCOCC
255.3

For the compound C1CCOC1 [tetrahydrofuran] , give its measured molar heat capacity at constant pressure value.
123.8

Answer with reported molar heat capacity at constant pressure of C1CCOCC1 [tetrahydropyran]
146.3

* * *

For each of the molecules below, state its mass density.
- conditions: 308.15 K; 101.33 kPa; Liquid; Vibrating tube method
Give a bare numeral; the unit kg/m3 is implied.

Tell me its mass density given CCOCCOCC [1,2-diethoxyethane] as the entry.
826.026

Name the recorded mass density of the item C[S+](C)[O-] [dimethyl sulfoxide] in your answer.
1085.5

Identify the reported mass density for the following entry. COCCOC [1,2-dimethoxyethane]
851.28

Specify reported mass density for the molecule shown: C1COCCO1 [1,4-dioxane]
1016.99

Please report mass density for the following molecule: C1CCOC1 [tetrahydrofuran]
870.99

Using the record for C1COCO1 [1,3-dioxolane] , state its measured mass density.
1046.4

Tell us which mass density value is on record for C1CCOCC1 [tetrahydropyran]
868.85

* * *

For each entry below, report its molar heat capacity at constant pressure value.
- measurement-description: molar heat capacity at constant pressure
- conditions: 323.15 K; 101.33 kPa; Liquid; Small sample (50 mg) DSC
Response body: numeric value in J/K/mol, unit text excluded.

State, in one line, measured molar heat capacity at constant pressure of C1COCCO1
158.4

Give molar heat capacity at constant pressure for the following compound: CCOCCOCC
262.9

Report measured molar heat capacity at constant pressure; entry is C1COCO1
128.1

// Input: C[S+](C)[O-] [dimethyl sulfoxide] . Output its molar heat capacity at constant pressure only.
157.7

Indicate the recorded molar heat capacity at constant pressure value for this compound: C1CCOCC1 [tetrahydropyran]
159.1

Give the reported value of molar heat capacity at constant pressure for this record: C1CCOC1 [tetrahydrofuran]
136.6

Look up molar heat capacity at constant pressure of COCCOC and report it.
196.9

* * *

- measurement-description: molar heat capacity at constant pressure
- conditions: 328.15 K; 101.33 kPa; Liquid; Small sample (50 mg) DSC
assay-endpoint: molar heat capacity at constant pressure (J/K/mol)
Form entry: value (J/K/mol) — number only.

Name the recorded molar heat capacity at constant pressure of the compound listed here: C1COCO1
129.5

Identify molar heat capacity at constant pressure associated with the compound C1COCCO1
160.2

Dear colleague, please send me the reported molar heat capacity at constant pressure for C[S+](C)[O-] [dimethyl sulfoxide] when you can.
157.8

Name the recorded molar heat capacity at constant pressure of the compound listed here: C1CCOCC1 [tetrahydropyran]
161.6

* * *

- measurement-description: molar heat capacity at constant pressure
- conditions: 308.15 K; 101.33 kPa; Liquid; Small sample (50 mg) DSC
Kindly state molar heat capacity at constant pressure for each of the entries shown.
Enter your answer as a number in J/K/mol; do not include the unit.

Give molar heat capacity at constant pressure for the following compound: C1CCOCC1 [tetrahydropyran]
151.7

State its molar heat capacity at constant pressure: C1CCOC1 [tetrahydrofuran]
131.4

Item C1COCO1 : provide molar heat capacity at constant pressure
124.4

Answer with the recorded molar heat capacity at constant pressure of C1COCCO1 only.
153.7

Look up and state reported molar heat capacity at constant pressure for COCCOC
193.4

Please list molar heat capacity at constant pressure recorded for the compound CCOCCOCC
258.7

Consider the compound C[S+](C)[O-] [dimethyl sulfoxide] and give its recorded molar heat capacity at constant pressure.
154.8

* * *

Field: refractive index. Provide a value for each of the compounds that follow.
- measurement-description: refractive index (Na D-line) (dimensionless)
- conditions: 298.15 K; 101.33 kPa; Liquid; Standard Abbe refractometry
// return just the number, without any unit appended

Look up and state reported refractive index for C1CCOC1 [tetrahydrofuran]
1.4048

# return recorded refractive index for input CCOCCOCC [1,2-diethoxyethane]
1.3897

Item C[S+](C)[O-] [dimethyl sulfoxide] : provide refractive index
1.4775

Please report refractive index for the following compound: C1COCO1 [1,3-dioxolane]
1.3983

Please list refractive index recorded for the compound COCCOC [1,2-dimethoxyethane]
1.3781

Using the record for C1COCCO1 [1,4-dioxane] , state its measured refractive index.
1.4202

For the compound C1CCOCC1 [tetrahydropyran] , give its reported refractive index.
1.4188

* * *

- measurement-description: refractive index (Na D-line) (dimensionless)
- conditions: 308.15 K; 101.33 kPa; Liquid; Standard Abbe refractometry
assay-endpoint: refractive index
// print number alone

Indicate the recorded refractive index value for this compound: COCCOC
1.3726

Dear colleague, please send me the reported refractive index for C1COCO1 when you can.
1.3934

Indicate the recorded refractive index value for this compound: C1CCOC1 [tetrahydrofuran]
1.4002

Fill in refractive index for record C1CCOCC1 [tetrahydropyran]
1.4142

Please report the measured refractive index for C1COCCO1
1.4154

Please give measured refractive index of the following entry: CCOCCOCC
1.3853

Output refractive index of C[S+](C)[O-] [dimethyl sulfoxide]
1.4729

* * *

For each entry below, report its molar heat capacity at constant pressure value.
- measurement-description: molar heat capacity at constant pressure
- conditions: 313.15 K; 101.33 kPa; Liquid; Small sample (50 mg) DSC
The answer is to be given in J/K/mol; state only the numeric part.

Specify reported molar heat capacity at constant pressure for the compound shown: C1COCO1 [1,3-dioxolane]
125.3

Please report molar heat capacity at constant pressure for the following compound: C1COCCO1 [1,4-dioxane]
155.3

Given C1CCOC1 [tetrahydrofuran] , respond with its molar heat capacity at constant pressure.
133.2

Name the recorded molar heat capacity at constant pressure of the compound listed here: C1CCOCC1 [tetrahydropyran]
154.3

Supply recorded molar heat capacity at constant pressure for COCCOC [1,2-dimethoxyethane] here.
194.5

Identify measured molar heat capacity at constant pressure associated with CCOCCOCC [1,2-diethoxyethane]
259.5

Give the reported value of molar heat capacity at constant pressure for this record: C[S+](C)[O-] [dimethyl sulfoxide]
155.4

* * *

- measurement-description: molar heat capacity at constant pressure
- conditions: 303.15 K; 101.33 kPa; Liquid; Small sample (50 mg) DSC
assay-endpoint: molar heat capacity at constant pressure (J/K/mol)
API: value field is a number in J/K/mol; no unit string.

Recall and state the measured molar heat capacity at constant pressure for C1CCOCC1 [tetrahydropyran] .
149.7

Look up molar heat capacity at constant pressure of C1CCOC1 [tetrahydrofuran] and report it.
128.5

Write down molar heat capacity at constant pressure measured for item CCOCCOCC
257.9

Given C[S+](C)[O-] [dimethyl sulfoxide] , respond with its molar heat capacity at constant pressure.
153.4

Supply reported molar heat capacity at constant pressure belonging to this compound: C1COCCO1
152.1
